- measurement_target: NaV1.5 (Homo sapiens)
- Construct: permanently transfected with an expression vector containing the full-length cDNA coding for the desired human sodium channel α-subunit; expressed in transfected cells; host or cells: HEK-293
- Sequence (Q14524 whole entry): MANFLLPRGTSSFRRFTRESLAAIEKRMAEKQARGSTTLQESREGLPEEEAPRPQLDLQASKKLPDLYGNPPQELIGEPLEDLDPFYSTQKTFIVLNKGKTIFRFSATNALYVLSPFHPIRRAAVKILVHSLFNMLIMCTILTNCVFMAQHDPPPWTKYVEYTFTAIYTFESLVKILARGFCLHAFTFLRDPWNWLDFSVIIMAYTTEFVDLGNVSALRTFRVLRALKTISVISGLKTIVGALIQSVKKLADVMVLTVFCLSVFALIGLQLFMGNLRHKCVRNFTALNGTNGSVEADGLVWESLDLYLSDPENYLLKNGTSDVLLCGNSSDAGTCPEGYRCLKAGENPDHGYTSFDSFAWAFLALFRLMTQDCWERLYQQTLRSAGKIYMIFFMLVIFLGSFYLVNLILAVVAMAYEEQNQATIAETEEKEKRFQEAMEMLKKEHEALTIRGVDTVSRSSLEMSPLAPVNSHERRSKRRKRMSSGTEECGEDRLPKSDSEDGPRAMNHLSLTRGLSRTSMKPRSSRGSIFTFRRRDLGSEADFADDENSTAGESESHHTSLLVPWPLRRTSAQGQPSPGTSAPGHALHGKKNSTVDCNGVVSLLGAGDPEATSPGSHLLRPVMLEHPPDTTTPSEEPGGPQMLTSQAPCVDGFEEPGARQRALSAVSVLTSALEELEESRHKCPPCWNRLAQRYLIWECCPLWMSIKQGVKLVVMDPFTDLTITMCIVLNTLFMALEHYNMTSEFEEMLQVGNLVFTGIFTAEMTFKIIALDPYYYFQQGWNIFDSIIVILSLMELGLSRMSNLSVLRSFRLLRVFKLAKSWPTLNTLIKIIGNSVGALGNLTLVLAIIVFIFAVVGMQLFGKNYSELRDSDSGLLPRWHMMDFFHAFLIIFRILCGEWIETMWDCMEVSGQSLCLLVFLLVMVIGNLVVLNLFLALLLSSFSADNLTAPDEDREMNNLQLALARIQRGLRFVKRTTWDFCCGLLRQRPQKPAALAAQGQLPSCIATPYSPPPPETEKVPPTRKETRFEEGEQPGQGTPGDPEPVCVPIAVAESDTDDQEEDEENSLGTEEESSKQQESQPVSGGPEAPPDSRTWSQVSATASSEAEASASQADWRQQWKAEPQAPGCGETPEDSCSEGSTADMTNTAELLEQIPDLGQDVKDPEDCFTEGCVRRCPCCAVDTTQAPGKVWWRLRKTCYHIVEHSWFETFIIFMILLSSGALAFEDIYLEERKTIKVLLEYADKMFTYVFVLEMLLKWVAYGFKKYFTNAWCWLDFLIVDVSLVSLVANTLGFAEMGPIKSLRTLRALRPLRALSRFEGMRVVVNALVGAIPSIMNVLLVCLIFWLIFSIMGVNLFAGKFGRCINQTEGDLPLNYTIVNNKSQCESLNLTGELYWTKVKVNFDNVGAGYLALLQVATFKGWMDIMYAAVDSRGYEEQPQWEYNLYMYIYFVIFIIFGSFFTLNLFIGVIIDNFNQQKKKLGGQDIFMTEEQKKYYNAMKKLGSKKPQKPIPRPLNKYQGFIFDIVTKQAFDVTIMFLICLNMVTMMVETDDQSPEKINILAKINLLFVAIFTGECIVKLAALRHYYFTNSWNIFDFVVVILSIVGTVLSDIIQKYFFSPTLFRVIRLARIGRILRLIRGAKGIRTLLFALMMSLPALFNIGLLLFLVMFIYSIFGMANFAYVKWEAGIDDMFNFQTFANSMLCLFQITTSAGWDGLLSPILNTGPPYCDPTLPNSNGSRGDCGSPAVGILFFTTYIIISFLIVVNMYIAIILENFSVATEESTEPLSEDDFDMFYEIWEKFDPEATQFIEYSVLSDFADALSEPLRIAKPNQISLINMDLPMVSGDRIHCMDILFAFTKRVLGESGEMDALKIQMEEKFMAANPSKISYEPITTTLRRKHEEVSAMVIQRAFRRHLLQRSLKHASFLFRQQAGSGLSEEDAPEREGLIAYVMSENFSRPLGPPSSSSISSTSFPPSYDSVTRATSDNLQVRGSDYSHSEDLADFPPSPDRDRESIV
- test_name: Patch voltage clamp electrophysiology assay (EP), NaV1.5
- Type: cell-based
- run_parameters: HEK-293 cells stably expressing NaV1.5 with β1 subunit; whole-cell patch clamp, membrane potential −60 mV (inactivated state); read-out: Nav1.5
measurement_kind: IC50

Task item: IC50 lookup needed for O=C(N[C@@H](CC1CC1)C(=O)O)c1cc(C2CC2)c(OCC23CC4CC(CC(C4)C2)C3)cc1F , thanks.
Reply: 15 µM

Task item: IC50 lookup needed for C[C@@H]1[C@H](O)CN(C(=O)c2cc(C3CC3)c(OCC34CC5CC(CC(C5)C3)C4)cc2F)[C@@H]1C(=O)O , thanks.
Reply: 15 µM

Task item: IC50 lookup needed for C[C@H]1CCN(C(=O)c2cc(C3CC3)c(OCC3CCN([C@H](c4cc(Cl)cc(Cl)c4)C(F)(F)F)CC3)cc2F)[C@@H]1C(=O)O (single isomer, unassigned) [Example 121a] , thanks.
Reply: 13 µM

Task item: IC50 lookup needed for C[C@@H](c1cc(Cl)cc(Cl)c1)N1CCC(C#N)(COc2cc(F)c(C(=O)N3C[C@H](F)C[C@H]3C(=O)O)cc2C2CC2)CC1 (single isomer, unassigned) [Example 126b] , thanks.
Reply: 10 µM

Task item: IC50 lookup needed for CC(C)(C)[C@H](NC(=O)c1cc(C2CC2)c(OCC23CC4CC(CC(C4)C2)C3)cc1F)C(=O)O , thanks.
Reply: 7.5 µM

Task item: IC50 lookup needed for C[C@H]1[C@H](O)CN(C(=O)c2cc(C3CC3)c(OCC34CC5CC(CC(C5)C3)C4)cc2F)[C@@H]1C(=O)O , thanks.
Reply: 11 µM

Task item: IC50 lookup needed for CO[C@H]1CN(C(=O)c2cc(C3CC3)c(OCC34CC5CC(CC(C5)C3)C4)cc2F)[C@H](C(=O)O)C1C (stereo partly shown) , thanks.
Reply: 25 µM

Task item: IC50 lookup needed for C[C@@H]1SCN(C(=O)c2cc(C3CC3)c(OCC34CC5CC(CC(C5)C3)C4)cc2F)[C@H]1C(=O)O [Example 142b] , thanks.
Reply: 15 µM

Task item: IC50 lookup needed for CC[C@H]1CCN(C(=O)c2cc(C3CC3)c(OCC34CC5CC(CC(C5)C3)C4)cc2F)[C@@H]1C(=O)O [Example 168a] , thanks.
Reply: 6.8 µM

Task item: IC50 lookup needed for CC(C)[C@H](NC(=O)c1cc(C2CC2)c(OCC23CC4CC(CC(C4)C2)C3)cc1F)C(=O)O , thanks.
Reply: 8.1 µM

Task item: IC50 lookup needed for C[C@H]1OCN(C(=O)c2cc(C3CC3)c(OCC3CCN([C@H](c4cc(Cl)cc(Cl)c4)C(F)(F)F)CC3)cc2F)[C@@H]1C(=O)O (single isomer, unassigned) [Example 138a] , thanks.
Reply: 13 µM

Task item: IC50 lookup needed for C[C@@H](c1cc(Cl)cc(Cl)c1)N1CCC[C@H](COc2cc(F)c(C(=O)N3CCC[C@H]3C(=O)O)cc2C2CC2)C1 (single isomer, unassigned) [Example 73b] , thanks.
Reply: 22 µM

Task item: IC50 lookup needed for CC(C)[C@@H](C(=O)O)N(C)C(=O)c1cc(C2CC2)c(COc2cc(Cl)cc(OC(F)(F)F)c2)cc1F , thanks.
Reply: 11 µM

The measured values listed here are drawn from patent US10125098B2.
